- MEASUREMENT_TARGET: Gi-coupled receptor APJ (HEK cells stably expressing the APJ receptor) (Homo sapiens, UniProt P35414)
- Construct: expressed in transfected cells; host or cells: HEK cells stably expressing APJ
- Sequence (P35414 1-380): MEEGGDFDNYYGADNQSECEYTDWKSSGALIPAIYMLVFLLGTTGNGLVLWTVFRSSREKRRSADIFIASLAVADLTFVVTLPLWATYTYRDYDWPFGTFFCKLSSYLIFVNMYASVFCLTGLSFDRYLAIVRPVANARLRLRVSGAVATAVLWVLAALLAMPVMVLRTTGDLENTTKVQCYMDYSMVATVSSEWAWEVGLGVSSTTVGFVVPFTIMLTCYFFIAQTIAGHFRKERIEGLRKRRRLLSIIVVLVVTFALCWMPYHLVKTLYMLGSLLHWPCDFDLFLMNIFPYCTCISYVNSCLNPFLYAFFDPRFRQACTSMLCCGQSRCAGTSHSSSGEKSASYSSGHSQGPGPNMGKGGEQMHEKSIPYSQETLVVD
- EXPERIMENT: HTRF cAMP assay: inhibition of NKH477 stimulated increase in cAMP
- Type: cell-based
- PROTOCOL_CONDITIONS: read-out: EC50 value (nM), SEM
Residues, ends and D or L forms follow the SMILES beside them. *: point of attachment. Palmitoyl = CCCCCCCCCCCCCCCC(=O)*
READOUT_KIND: EC50

COMPOUND	READOUT_KIND	REPORTED_MEASUREMENT
CCCCCCCCCCCCCCCC(=O)N[C@@H](Cc1ccccc1)C(=O)N[C@@H](CCCNC(=N)N)C(=O)N[C@@H](CO)C(=O)N[C@@H](CO)C(=O)N[C@@H](CCCNC(=N)N)C(=O)N[C@@H](CCC(=O)O)C(=O)N[C@@H](CCCCN)C(=O)N[C@@H](CCCNC(=N)N)C(=O)N[C@@H](CCCNC(=N)N)C(=O)N[C@@H](CO)C(=O)N[C@@H](C)C(=O)N[C@@H](CC(=O)O)C(=O)N[C@H](C(=O)N[C@@H](Cc1ccccc1)C(=O)N[C@H](C(N)=O)[C@@H](C)CC)[C@@H](C)CC [Compound 11] (Palmitoyl-FRSSREKRRSADIFI-NH2)	EC50	1 to 500 nM
CCCCCCCCCCCCCCCC(=O)N[C@@H](CO)C(=O)N[C@@H](CO)C(=O)N[C@@H](CCCNC(=N)N)C(=O)N[C@@H](CCC(=O)O)C(=O)N[C@@H](CCCCN)C(=O)N[C@@H](CCCNC(=N)N)C(=O)N[C@@H](CCCNC(=N)N)C(=O)N[C@@H](CO)C(=O)N[C@@H](C)C(=O)N[C@@H](CC(=O)O)C(=O)N[C@H](C(=O)N[C@@H](Cc1ccccc1)C(=O)N[C@H](C(=O)N[C@@H](C)C(N)=O)[C@@H](C)CC)[C@@H](C)CC [Compound 33] (Palmitoyl-SSREKRRSADIFIA-NH2)	EC50	> 10000 nM
